# Test system: RARb:RXRa (NR concentration 270 nM, RXRa partner concentration 90 nM)
# Assay Summary: PBM binding z-score (relative to random genomic background probes); higher = stronger binding; sequences stand for … in GC…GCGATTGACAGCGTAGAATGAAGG
Classify by PBM binding z-score. Ranges: low bin: < 0.7; mid bin: ≥ 0.7 and < 3; high bin: ≥ 3

Query block: Which class does "TCTTGTAGATCAACAGGAGGTTAAGCAAGATCGA" fall in?
Result block: low bin

Query block: Which class does "CCTATTAGTTGACCATAAGGGCAACGGAAGCTCG" fall in?
Result block: mid bin

Query block: Which class does "CAGCCTAGGTCAAGGCCAGTATAGGAGGAACGTT" fall in?
Result block: high bin

Query block: Which class does "ATCGAAAGGTCGAGGTTAGTATAGAGAAAGGGAA" fall in?
Result block: high bin

Query block: Which class does "TCTTGTATATCAAGCAGGTTAAGAAAGCCTGAGT" fall in?
Result block: low bin

Query block: Which class does "TAGCCTAGGTTATTCAGGGGCCAGTATAGAAAGC" fall in?
Result block: mid bin

Query block: Which class does "GCGTATAGGTAATACAAGGTGAAAGTCCGATTGT" fall in?
Result block: low bin

Query block: Which class does "TCATATAGGTAAATGCTAGGTGAAAGGCCGATCT" fall in?
Result block: low bin

Query block: Which class does "CAAACTAGGTCACCGGAAGGTCGAAGTCCGCATG" fall in?
Result block: high bin

Query block: Which class does "TCTGCGAGGTCAACGATGGTCAGCTAATCTGCTA" fall in?
Result block: high bin

Query block: Which class does "ACTATTAGTAGACTTAGGGCAACCGATACGACGC" fall in?
Result block: low bin

Query block: Which class does "GTACCAAGGTTAATAGGTCGTTGATGAGTAGGCG" fall in?
Result block: mid bin

Query block: Which class does "CAAATTAGGTCAAGAGGTCAAAGTCCGCTTCCCG" fall in?
Result block: high bin

Query block: Which class does "CATACAGGGTCAGCTAGGCCAGCGTAGGGACGGC" fall in?
Result block: high bin

Query block: Which class does "GGAAGGAGGGCAAGTTGATAGCAGAGTTTGATGG" fall in?
Result block: mid bin

Query block: Which class does "TAGCCTAGGTCATTGGTCCAGTATAGTACGCATC" fall in?
Result block: high bin

Query block: Which class does "ATCTCTAGGTAAGACTCAGTTGAGTGAAGAACGC" fall in?
Result block: low bin

Query block: Which class does "CCTACTGGGCCATCTGGTCATTGATATCAACGTT" fall in?
Result block: low bin

Query block: Which class does "TCTCGGAGGACACGAAGGTCAGGGCTTTCCAGAG" fall in?
Result block: high bin

Query block: Which class does "ATCGGAAGGTCGTGAGGTGAGTATACAGAAAGGC" fall in?
Result block: mid bin

Query block: Which class does "TCTCGGACGACACGAAGGTCAGAGCTTTCCAGAG" fall in?
Result block: mid bin

Query block: Which class does "CCTACTGGGCCATTCAGAGATCATTGATCATATG" fall in?
Result block: low bin

Query block: Which class does "CCAGACAGGGGAAAGGTAACTCAGTCTGGTACGC" fall in?
Result block: low bin

Query block: Which class does "CCTTACGGGTCACTCCAGGTTATCGCATCGGAGT" fall in?
Result block: high bin

Query block: Which class does "GCTTGGAGATCAAGGTTAAGAAAGACTAAGCTAA" fall in?
Result block: mid bin

Query block: Which class does "CCGACTGGGGCAGAAAGGTTACGATACCATCCGG" fall in?
Result block: mid bin

* * *

# System: RXRa DBDmut IVT, anti-RXR (DBD mutation: RXRa K156A/R161A, NR concentration 90 nM)
# Assay Summary: PBM binding z-score (relative to random genomic background probes); higher = stronger binding; sequences stand for … in GC…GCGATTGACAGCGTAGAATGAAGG
For each entry below, report its PBM binding z-score value.
Lab note: record the figure alone, no unit after it.

Query block: Consider the sequence "GTACCAAGGTGAATAGGTCTTTGATGAGTAGGCG" and give its measured PBM binding z-score.
Result block: 0.00774

Query block: Consider the sequence "CGAACGAGGGCATGAGTAGATAGCAAATGCCGAT" and give its measured PBM binding z-score.
Result block: 2.03

Query block: Consider the sequence "TCTGCTAGGTCAACGATGGACAGCTAATCTGCTA" and give its measured PBM binding z-score.
Result block: 0.955

Query block: Consider the sequence "ATACCAAGGTGATCGTGAGGTCGTTGTTACTAAC" and give its measured PBM binding z-score.
Result block: 0.951

Query block: Consider the sequence "CCTTACGGGTGACTCCAGGTTATAGCATCGGAGT" and give its measured PBM binding z-score.
Result block: -0.594

Query block: Consider the sequence "AGTCAAAGTTCACTCGGTAACGTAAGATTCAGCT" and give its measured PBM binding z-score.
Result block: 4.02

Query block: Consider the sequence "TCATATAGGTAAAGGCGAAAGTCGAACGATATGA" and give its measured PBM binding z-score.
Result block: 0.563

Query block: Consider the sequence "TCATTTAGGTAAAAGGTGAAAGTCGGTGTGGTAA" and give its measured PBM binding z-score.
Result block: 1.68

Query block: Consider the sequence "TAGCCTAGGTCATTGAGCCAGTATAGTACGCATC" and give its measured PBM binding z-score.
Result block: 1.72

Query block: Consider the sequence "TTACCAAGGTGAAAGGTCGTTGTTGCACGCCTTG" and give its measured PBM binding z-score.
Result block: 0.868

Query block: Consider the sequence "ACTATTAGTGGAGACGAGGGCAACCGATAGGTTG" and give its measured PBM binding z-score.
Result block: 0.323

Query block: Consider the sequence "GCTGCTAGGTCAACTGATGGTCAGGTAAAGCTCG" and give its measured PBM binding z-score.
Result block: 1.6

* * *

For each entry below, report its PBM binding z-score value.
# Tested on: PXR:RXRa (NR concentration 270 nM, RXRa partner concentration 90 nM)
# Assay Summary: PBM binding z-score (relative to random genomic background probes); higher = stronger binding; sequences stand for … in GC…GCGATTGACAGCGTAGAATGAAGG
Lab note: record the figure alone, no unit after it.

Query block: Consider the sequence "CAATCTAGGTCAAGAGGTCAAAGTCCGCTTCCCG" and give its measured PBM binding z-score.
Result block: 6.5

Query block: Consider the sequence "TGAATGATGTTAAAGATCAGGGAACGTGGCGTCG" and give its measured PBM binding z-score.
Result block: -0.226

Query block: Consider the sequence "CGTCCAAGGTCAAAGGTCAGTGTAGAGATGACGG" and give its measured PBM binding z-score.
Result block: 7.16

Query block: Consider the sequence "CGTCCAAGGTCATAGCAGGTCAGTGAAGACAGAT" and give its measured PBM binding z-score.
Result block: 6.05

Query block: Consider the sequence "ACTATTAGTTGACACGAGGGCAACCGATAGGTTG" and give its measured PBM binding z-score.
Result block: 1.75

Query block: Consider the sequence "ACAGACAGGTGATGAACGTAACTCAGGCTATCAT" and give its measured PBM binding z-score.
Result block: -0.104

Query block: Consider the sequence "CCGACTGGGTCAGAAAGGTTACCATACCATCCGG" and give its measured PBM binding z-score.
Result block: 2.48

Query block: Consider the sequence "GCTCGGAAGACAAGGTCAGAGCTTTGTCCGTAGA" and give its measured PBM binding z-score.
Result block: 1.41

Query block: Consider the sequence "CGAACTAGGCCAGAACAGGACAGTGAAGGATGAT" and give its measured PBM binding z-score.
Result block: -0.123

Query block: Consider the sequence "CGTCCAAGGTCAGCAGGTCAGTGGAAGCGACGTG" and give its measured PBM binding z-score.
Result block: 3.57

Query block: Consider the sequence "GCTTCTAGGTCAACTGATGGTCAGCTAAAGCTCG" and give its measured PBM binding z-score.
Result block: 1.97

Query block: Consider the sequence "ATATGTAGGTTATCGTGTCATTCAGTTTGCGCAT" and give its measured PBM binding z-score.
Result block: 1.17

Query block: Consider the sequence "TCTTGTAGATCAGAGGTTAAGAAAGCCGAAGCCT" and give its measured PBM binding z-score.
Result block: 0.951

Query block: Consider the sequence "CCGAGTTGGTTATGGGGCATTCAGGCAACGGTGA" and give its measured PBM binding z-score.
Result block: 0.00372

Query block: Consider the sequence "GCTAGAAGGCCATTTGGGTCACTCAATGACGGGC" and give its measured PBM binding z-score.
Result block: 1.19

Query block: Consider the sequence "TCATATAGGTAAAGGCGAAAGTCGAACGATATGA" and give its measured PBM binding z-score.
Result block: -0.107

Query block: Consider the sequence "CGAACTAGGTCAGAACAGGACAGTGAAGGATGAT" and give its measured PBM binding z-score.
Result block: 0.787

Query block: Consider the sequence "TATACAGGGTCAAAGGCAAGAGTACGAATGTCGA" and give its measured PBM binding z-score.
Result block: 3.86

Query block: Consider the sequence "GCTGCTAGTTCAGGTTGGTCAGCTAACGGGTACG" and give its measured PBM binding z-score.
Result block: -0.166

Query block: Consider the sequence "GCTCGGAGGGCAAGGTCAGAGCTTTGTCCGTAGA" and give its measured PBM binding z-score.
Result block: 2.07

Query block: Consider the sequence "TAGCCTAGGTCATTGGGTCAGTATAGTACGCATC" and give its measured PBM binding z-score.
Result block: 2.99

Query block: Consider the sequence "TCGAGTCGGTTAGGGGCATTCAGAATGGCGTCGA" and give its measured PBM binding z-score.
Result block: 0.545

Query block: Consider the sequence "TCATATAGGTAAATGCTAGGTGACAGTCCGATCT" and give its measured PBM binding z-score.
Result block: 0.559

Query block: Consider the sequence "CCCGAAAGGTCGTGCTCAGGTGAGTATACCAAAC" and give its measured PBM binding z-score.
Result block: 3.19

Query block: Consider the sequence "CGAACTAGGTCAAGGAAAGTGAATCTCCGCACGC" and give its measured PBM binding z-score.
Result block: 0.813

Query block: Consider the sequence "ACTATTAGTTGAGACGAGGGCAGCCGATAGGTTG" and give its measured PBM binding z-score.
Result block: 0.456
